- assayInfo: Stability of linkers L1-L4 conjugated to FGF21 (LC-MS)
- Type: physicochemical
- measurementConditions: +4° C., 0 hrs

molecule	+(1) H2O [%]
L1-FGF21ΔH-A129C: Linker-1 conjugated to FGF21ΔH-A129C protein (Table 4; Table 5 row L1) (conjugate, UniProt Q9NSA1 29-209, looked up, variant H1* A129C, Linker-1 attached) Fibroblast growth factor 21: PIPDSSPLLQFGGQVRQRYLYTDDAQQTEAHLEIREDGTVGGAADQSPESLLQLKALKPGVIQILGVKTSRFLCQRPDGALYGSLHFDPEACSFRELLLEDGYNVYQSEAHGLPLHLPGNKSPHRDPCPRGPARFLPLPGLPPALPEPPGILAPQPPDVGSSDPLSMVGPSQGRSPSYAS	30
